The measurements presented in this section are drawn from ChEMBL document CHEMBL4431366.

Recorded pIC50 values for a group of compounds are listed next.
# Assayed target: Tyrosine-protein phosphatase non-receptor type 5 (Homo sapiens)
# Sequence (P54829 whole entry): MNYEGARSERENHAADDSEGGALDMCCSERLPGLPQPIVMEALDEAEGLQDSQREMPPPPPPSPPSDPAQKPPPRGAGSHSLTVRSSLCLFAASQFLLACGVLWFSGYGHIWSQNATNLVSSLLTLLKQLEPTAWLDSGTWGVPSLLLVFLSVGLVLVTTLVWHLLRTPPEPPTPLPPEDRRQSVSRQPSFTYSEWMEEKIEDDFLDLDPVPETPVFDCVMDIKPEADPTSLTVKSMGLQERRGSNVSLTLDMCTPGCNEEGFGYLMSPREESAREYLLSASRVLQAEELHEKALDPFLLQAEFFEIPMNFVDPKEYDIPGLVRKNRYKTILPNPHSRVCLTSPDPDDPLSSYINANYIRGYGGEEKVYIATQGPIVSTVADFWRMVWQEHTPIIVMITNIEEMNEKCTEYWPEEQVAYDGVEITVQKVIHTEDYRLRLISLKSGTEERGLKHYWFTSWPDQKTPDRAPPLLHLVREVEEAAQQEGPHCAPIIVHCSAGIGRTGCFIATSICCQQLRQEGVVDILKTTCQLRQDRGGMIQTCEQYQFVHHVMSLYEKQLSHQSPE
pIC50: −log10 of the molar value.

Examples from the recorded data:
Cc1cc2cc(OCC(=O)O)ccc2n1-c1ccc(Cl)cc1 ... < 3.52
Cc1ccc([N+](=O)[O-])cc1-c1ccc(/C=c2\sc3nc4ccccc4n3c2=O)o1 ... < 3.52
O=C(O)c1cc2ccoc2cc(C(=O)O)c1=O ... < 3.52
Cc1cc(/C=c2/sc3nc4ccccc4n3c2=O)c(C)n1-c1cccc(C(=O)O)c1 ... 5.08

Need pIC50, item O=C(O)c1cccc(/C=c2/sc3nc4ccccc4n3c2=O)c1 < 3.52
